# measurementTarget: Glutathione peroxidase 1 (Homo sapiens) (UniProt P07203)
# Sequence (P07203 whole entry, looked up): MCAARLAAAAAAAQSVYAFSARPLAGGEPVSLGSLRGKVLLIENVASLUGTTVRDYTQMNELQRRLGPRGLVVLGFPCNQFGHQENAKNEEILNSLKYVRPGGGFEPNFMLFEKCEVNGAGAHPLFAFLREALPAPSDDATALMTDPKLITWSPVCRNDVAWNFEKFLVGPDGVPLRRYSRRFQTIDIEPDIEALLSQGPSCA
# protocol: Primary qHTS Assay for Inhibitors of Recombinant Selenoprotein Glutathione Peroxidase 1 (GPX1) (AID 1845191); note: nearly all actives have a fitted effect of over 65% in size
# settings: recombinant GPX1, GR-coupled NADPH fluorescence, 15 min; series mostly up to 48.8 µM
Inconclusive results are not listed. The source made the active and inactive calls. Calls come from the whole dose curve; as a rule, active = well fitted inhibition curve with a large enough effect; inconclusive = small, poorly fitted or top-dose-only effect; inactive = flat fitted curve, though single readings scatter.
Respond with a class label; see YES = active, NO = inactive

Called result for `CCCC(=O)C1(c2ccccc2)CCN(C(=O)[C@@H](Cc2ccc(OC)cc2)NC(=O)[C@@H](N)Cc2cncn2C)CC1`
NO

Now give it for CC(C)CC(=O)c1c(O)cc2c(c1O)C(CC(C)C)C1=C(O2)C(C)(C)C(=O)C(C)(C)C1=O (centres undefined) too.
NO

Same read-out for `Fc1ccc(CN2CCC(Nc3ccc(C(F)(F)F)nn3)CC2)cc1F` ?
NO

What do we get for `CC(=O)c1ccc2c(c1)[C@H](NC(=O)c1ccc(F)c(Cl)c1)[C@H](O)C(C)(C)O2` ?
NO

Now give it for `O=C(Nc1ccnc(NC(=O)C2CC2)c1)c1c(Cl)cccc1Cl` too.
NO

Entry `Clc1ccc(Cn2c(Cc3ccccc3)nc3ccccc32)cc1` please
NO

Note, next up: CC(C)(O)C1CC(=O)C2(C)C(CCC3(C)C(c4ccoc4)OC(=O)C4OC432)C12CCC(=O)OC2 (centres undefined)
NO

Next entry: `COc1ccccc1C(=O)Nc1cccc(NC(=O)c2cccc(C)c2)c1`
NO

Also need `Cn1nnnc1SCC1=C(C(=O)O)N2C(=O)[C@@H](NC(=O)[C@H](OC=O)c3ccccc3)[C@H]2SC1` , thanks.
YES
